# target: T1, mouse programmed cell death protein 1 Fc fusion protein (mPD-1-Fc), mPD-1 C60S (aa 25-167) (Mus musculus, UniProt Q02242, stabilised)
# T1 construct: not cleaved; source: Expi293F, purified (Protein A, SEC; dimeric fraction); not shown: Fc (human), C-terminal, kept
# method_description: SPR; Carterra LSA; Fab from the ammonium sulfate precipitate of the culture supernatant immobilised on a NiHC200M chip; hPD-1 (1-1024 nM) or mPD-1-Fc (4-1024 nM) as analyte, fourfold dilution series, no regeneration; HBS-EP pH 7.4, 25 °C; medians over the spots of a construct, KD = koff/kon
# particulars: one partner purified
readout_type: log10 kon (log10 of the value in M⁻¹ s⁻¹)

binder	readout_type	endpoint_value
toripalimab Fab L.V99H (Fab, V domains shown, as the heavy chain of Sm3; light chain of Sm3 with this change; numbers count from the chain's first residue; source: Brevibacillus, culture supernatant (ammonium sulfate precipitate); not shown: 6xHis, C-terminal, kept; 6xHN, C-terminal, kept) VH: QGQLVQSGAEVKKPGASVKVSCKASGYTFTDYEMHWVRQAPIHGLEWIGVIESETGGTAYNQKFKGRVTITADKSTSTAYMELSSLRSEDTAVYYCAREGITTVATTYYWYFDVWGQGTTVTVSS VL: DVVMTQSPLSLPVTLGQPASISCRSSQSIVHSNGNTYLEWYLQKPGQSPQLLIYKVSNRFSGVPDRFSGSGSGTDFTLKISRVEAEDVGVYYCFQGSHHPLTFGQGTKLEIK	log10 kon	4.47
toripalimab Fab H.G66A (Fab, V domains shown, heavy chain of Sm3 with this change; numbers count from the chain's first residue; as the light chain of Sm3; source: Brevibacillus, culture supernatant (ammonium sulfate precipitate); not shown: 6xHis, C-terminal, kept; 6xHN, C-terminal, kept) VH: QGQLVQSGAEVKKPGASVKVSCKASGYTFTDYEMHWVRQAPIHGLEWIGVIESETGGTAYNQKFKARVTITADKSTSTAYMELSSLRSEDTAVYYCAREGITTVATTYYWYFDVWGQGTTVTVSS VL: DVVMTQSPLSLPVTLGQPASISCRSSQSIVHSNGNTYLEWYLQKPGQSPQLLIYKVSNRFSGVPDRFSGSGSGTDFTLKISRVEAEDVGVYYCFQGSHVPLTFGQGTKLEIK	log10 kon	4.48
toripalimab Fab H.E52Y (Fab, V domains shown, heavy chain of Sm3 with this change; numbers count from the chain's first residue; as the light chain of Sm3; source: Brevibacillus, culture supernatant (ammonium sulfate precipitate); not shown: 6xHis, C-terminal, kept; 6xHN, C-terminal, kept) VH: QGQLVQSGAEVKKPGASVKVSCKASGYTFTDYEMHWVRQAPIHGLEWIGVIYSETGGTAYNQKFKGRVTITADKSTSTAYMELSSLRSEDTAVYYCAREGITTVATTYYWYFDVWGQGTTVTVSS VL: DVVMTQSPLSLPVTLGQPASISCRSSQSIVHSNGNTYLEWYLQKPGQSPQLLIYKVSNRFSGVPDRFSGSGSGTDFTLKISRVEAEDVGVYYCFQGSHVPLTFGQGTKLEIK	log10 kon	5.39
toripalimab Fab L.V99E (Fab, V domains shown, as the heavy chain of Sm3; light chain of Sm3 with this change; numbers count from the chain's first residue; source: Brevibacillus, culture supernatant (ammonium sulfate precipitate); not shown: 6xHis, C-terminal, kept; 6xHN, C-terminal, kept) VH: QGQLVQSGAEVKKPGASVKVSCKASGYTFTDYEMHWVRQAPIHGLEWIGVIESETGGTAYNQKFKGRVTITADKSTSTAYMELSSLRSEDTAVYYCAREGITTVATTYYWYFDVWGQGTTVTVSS VL: DVVMTQSPLSLPVTLGQPASISCRSSQSIVHSNGNTYLEWYLQKPGQSPQLLIYKVSNRFSGVPDRFSGSGSGTDFTLKISRVEAEDVGVYYCFQGSHEPLTFGQGTKLEIK	log10 kon	4.57
toripalimab Fab H.T107Y (Fab, V domains shown, heavy chain of Sm3 with this change; numbers count from the chain's first residue; as the light chain of Sm3; source: Brevibacillus, culture supernatant (ammonium sulfate precipitate); not shown: 6xHis, C-terminal, kept; 6xHN, C-terminal, kept) VH: QGQLVQSGAEVKKPGASVKVSCKASGYTFTDYEMHWVRQAPIHGLEWIGVIESETGGTAYNQKFKGRVTITADKSTSTAYMELSSLRSEDTAVYYCAREGITTVATYYYWYFDVWGQGTTVTVSS VL: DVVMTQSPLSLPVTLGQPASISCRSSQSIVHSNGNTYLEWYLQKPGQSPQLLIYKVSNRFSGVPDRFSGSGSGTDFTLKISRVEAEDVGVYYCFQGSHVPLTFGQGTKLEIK	log10 kon	4.50
toripalimab Fab H.E54Y (Fab, V domains shown, heavy chain of Sm3 with this change; numbers count from the chain's first residue; as the light chain of Sm3; source: Brevibacillus, culture supernatant (ammonium sulfate precipitate); not shown: 6xHis, C-terminal, kept; 6xHN, C-terminal, kept) VH: QGQLVQSGAEVKKPGASVKVSCKASGYTFTDYEMHWVRQAPIHGLEWIGVIESYTGGTAYNQKFKGRVTITADKSTSTAYMELSSLRSEDTAVYYCAREGITTVATTYYWYFDVWGQGTTVTVSS VL: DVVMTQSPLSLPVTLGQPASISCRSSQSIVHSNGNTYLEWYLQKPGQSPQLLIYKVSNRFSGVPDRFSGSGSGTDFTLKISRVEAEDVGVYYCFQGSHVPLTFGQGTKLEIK	log10 kon	4.70
toripalimab Fab L.P100H (Fab, V domains shown, as the heavy chain of Sm3; light chain of Sm3 with this change; numbers count from the chain's first residue; source: Brevibacillus, culture supernatant (ammonium sulfate precipitate); not shown: 6xHis, C-terminal, kept; 6xHN, C-terminal, kept) VH: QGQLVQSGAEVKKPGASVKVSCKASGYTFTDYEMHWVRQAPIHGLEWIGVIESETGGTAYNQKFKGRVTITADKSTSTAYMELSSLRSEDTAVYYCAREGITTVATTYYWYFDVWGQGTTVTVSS VL: DVVMTQSPLSLPVTLGQPASISCRSSQSIVHSNGNTYLEWYLQKPGQSPQLLIYKVSNRFSGVPDRFSGSGSGTDFTLKISRVEAEDVGVYYCFQGSHVHLTFGQGTKLEIK	log10 kon	3.98
toripalimab Fab H.Q62Y (Fab, V domains shown, heavy chain of Sm3 with this change; numbers count from the chain's first residue; as the light chain of Sm3; source: Brevibacillus, culture supernatant (ammonium sulfate precipitate); not shown: 6xHis, C-terminal, kept; 6xHN, C-terminal, kept) VH: QGQLVQSGAEVKKPGASVKVSCKASGYTFTDYEMHWVRQAPIHGLEWIGVIESETGGTAYNYKFKGRVTITADKSTSTAYMELSSLRSEDTAVYYCAREGITTVATTYYWYFDVWGQGTTVTVSS VL: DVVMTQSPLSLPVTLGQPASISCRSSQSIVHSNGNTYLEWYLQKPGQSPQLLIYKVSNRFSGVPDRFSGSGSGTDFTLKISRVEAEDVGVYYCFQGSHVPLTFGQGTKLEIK	log10 kon	4.53
toripalimab Fab L.N58Y (Fab, V domains shown, as the heavy chain of Sm3; light chain of Sm3 with this change; numbers count from the chain's first residue; source: Brevibacillus, culture supernatant (ammonium sulfate precipitate); not shown: 6xHis, C-terminal, kept; 6xHN, C-terminal, kept) VH: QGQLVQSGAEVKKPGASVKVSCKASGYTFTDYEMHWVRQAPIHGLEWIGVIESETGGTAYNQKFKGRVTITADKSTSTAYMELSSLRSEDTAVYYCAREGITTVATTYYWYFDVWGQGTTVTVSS VL: DVVMTQSPLSLPVTLGQPASISCRSSQSIVHSNGNTYLEWYLQKPGQSPQLLIYKVSYRFSGVPDRFSGSGSGTDFTLKISRVEAEDVGVYYCFQGSHVPLTFGQGTKLEIK	log10 kon	4.61
toripalimab Fab L.I29A (Fab, V domains shown, as the heavy chain of Sm3; light chain of Sm3 with this change; numbers count from the chain's first residue; source: Brevibacillus, culture supernatant (ammonium sulfate precipitate); not shown: 6xHis, C-terminal, kept; 6xHN, C-terminal, kept) VH: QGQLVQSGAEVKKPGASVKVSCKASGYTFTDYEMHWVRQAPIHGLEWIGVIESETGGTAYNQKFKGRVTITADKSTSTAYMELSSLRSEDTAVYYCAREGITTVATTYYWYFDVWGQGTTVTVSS VL: DVVMTQSPLSLPVTLGQPASISCRSSQSAVHSNGNTYLEWYLQKPGQSPQLLIYKVSNRFSGVPDRFSGSGSGTDFTLKISRVEAEDVGVYYCFQGSHVPLTFGQGTKLEIK	log10 kon	4.62
